Recorded values, source patent US6413937B1.

molecular target: MRP pump (Homo sapiens); construct: inside-out plasma membrane vesicles prepared from HL60ADR cells; endogenous in cells; host or cells: HL60ADR cells (plasma membrane vesicles); experiment: ATP-dependent transport of [3H]LTC4 into inside-out plasma membrane vesicles from HL60ADR cells; type: biochemical; conditions: conclusion from Table 4
Sequence (P33527 whole entry): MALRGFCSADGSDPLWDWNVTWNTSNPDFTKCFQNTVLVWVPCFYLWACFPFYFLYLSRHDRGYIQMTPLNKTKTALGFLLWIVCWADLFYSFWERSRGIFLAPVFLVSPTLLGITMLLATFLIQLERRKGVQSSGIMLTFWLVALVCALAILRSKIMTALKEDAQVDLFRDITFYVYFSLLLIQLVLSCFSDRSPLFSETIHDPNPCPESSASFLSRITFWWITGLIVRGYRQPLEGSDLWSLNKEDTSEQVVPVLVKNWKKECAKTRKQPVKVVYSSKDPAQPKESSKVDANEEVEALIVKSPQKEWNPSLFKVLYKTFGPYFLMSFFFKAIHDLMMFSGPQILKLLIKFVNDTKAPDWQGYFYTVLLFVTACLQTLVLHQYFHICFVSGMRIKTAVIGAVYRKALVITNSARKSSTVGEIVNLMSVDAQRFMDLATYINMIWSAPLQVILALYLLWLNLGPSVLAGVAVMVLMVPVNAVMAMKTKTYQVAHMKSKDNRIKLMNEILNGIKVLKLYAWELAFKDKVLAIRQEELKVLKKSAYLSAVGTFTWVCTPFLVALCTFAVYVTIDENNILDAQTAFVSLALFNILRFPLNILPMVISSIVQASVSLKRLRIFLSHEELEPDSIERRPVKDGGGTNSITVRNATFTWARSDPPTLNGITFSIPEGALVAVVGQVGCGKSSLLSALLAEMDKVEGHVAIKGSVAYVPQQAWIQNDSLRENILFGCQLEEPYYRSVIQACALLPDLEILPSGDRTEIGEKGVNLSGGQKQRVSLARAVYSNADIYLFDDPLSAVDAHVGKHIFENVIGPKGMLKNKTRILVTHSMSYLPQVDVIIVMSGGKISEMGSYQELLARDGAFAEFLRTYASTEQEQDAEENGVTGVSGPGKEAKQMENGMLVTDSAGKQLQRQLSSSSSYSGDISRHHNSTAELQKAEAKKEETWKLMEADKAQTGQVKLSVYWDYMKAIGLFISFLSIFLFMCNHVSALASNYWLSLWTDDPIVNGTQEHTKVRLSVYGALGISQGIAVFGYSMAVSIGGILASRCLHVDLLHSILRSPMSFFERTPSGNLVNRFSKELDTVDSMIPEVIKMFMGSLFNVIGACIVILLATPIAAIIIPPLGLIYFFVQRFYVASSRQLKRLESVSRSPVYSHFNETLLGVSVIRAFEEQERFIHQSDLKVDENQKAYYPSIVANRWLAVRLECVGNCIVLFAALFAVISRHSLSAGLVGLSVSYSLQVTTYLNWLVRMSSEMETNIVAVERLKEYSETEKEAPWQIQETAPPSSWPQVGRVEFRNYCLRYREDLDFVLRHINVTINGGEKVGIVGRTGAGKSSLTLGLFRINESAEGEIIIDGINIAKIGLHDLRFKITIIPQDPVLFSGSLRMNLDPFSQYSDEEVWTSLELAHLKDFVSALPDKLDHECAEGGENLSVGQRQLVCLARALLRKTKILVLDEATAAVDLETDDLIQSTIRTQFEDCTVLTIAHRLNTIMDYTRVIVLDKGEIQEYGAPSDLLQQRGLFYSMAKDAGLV
parameter: MRP-pump inhibitory activity

| item smiles | result |
| --- | --- |
| CN1C(C(=O)Nc2ccccn2)=C(O)c2ccccc2S1(=O)=O | do not |
| COc1ccc2cc([C@H](C)C(=O)O)ccc2c1 | do not |

----------
This section presents compounds with their documented % Inhibition of GST values.
tested on: GST prepared from DLKP cells; experiment: total GST assay with 1-chloro-2,4-dinitrobenzene; format: biochemical, human; conditions: 1 mM
The figure you give is taken to be in %; do not add the unit.

Some solved entries appear below for comparison.
| compound | numeric readout |
| --- | --- |
| O=C(O)CCC(=O)c1ccc(-c2ccccc2)cc1 | 15.6 |
| CC(C(=O)O)c1cccc(C(=O)c2ccccc2)c1 (stereo not drawn) | 11.2 |
| c1ccc([C@H]2CN3CCSC3=N2)cc1 | 0 |
| CC(C)Cc1ccc(C(C)C(=O)O)cc1 (stereo not drawn) | 18.5 |
| COc1ccc2cc([C@H](C)C(=O)O)ccc2c1 | 17 |

Now look at this one.
% Inhibition of GST lookup needed for CC(C(=O)O)c1cccc(Oc2ccccc2)c1 (stereo not drawn) , thanks.
22.5
